biological target: IRAK4 (Homo sapiens, UniProt Q9NWZ3); experiment: IRAK4 degradation in OCI-LY10 (MSD, Meso Scale Discovery); format: cell-based; set-up: endogenous in cells; host or cells: OCI-LY10; conditions: OCI-LY10 cells, 24 h
Sequence (Q9NWZ3 whole entry): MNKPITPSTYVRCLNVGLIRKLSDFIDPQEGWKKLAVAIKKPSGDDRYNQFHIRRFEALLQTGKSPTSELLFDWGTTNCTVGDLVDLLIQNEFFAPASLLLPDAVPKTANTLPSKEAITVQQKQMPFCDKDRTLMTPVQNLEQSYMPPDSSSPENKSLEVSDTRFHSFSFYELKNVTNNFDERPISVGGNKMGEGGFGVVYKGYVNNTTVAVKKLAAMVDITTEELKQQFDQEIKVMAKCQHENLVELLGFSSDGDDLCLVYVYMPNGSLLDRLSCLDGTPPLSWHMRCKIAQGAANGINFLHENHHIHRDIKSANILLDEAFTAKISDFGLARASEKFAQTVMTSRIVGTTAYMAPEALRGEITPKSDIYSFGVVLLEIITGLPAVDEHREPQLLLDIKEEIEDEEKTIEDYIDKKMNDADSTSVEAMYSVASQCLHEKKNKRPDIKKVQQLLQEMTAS
Parameter DC50: see the listing below.

Here is how some compounds turned out for DC50.
Compound: CC(C)(O)c1cc2nn([C@H]3CC[C@H](CNCCCCCCc4cncc(-c5cccc(C(=O)Nc6ccc(=O)n(CC(=O)O)c6)c5)c4)CC3)cc2cc1NC(=O)c1cccc(C(F)(F)F)n1
Test system: IRAK4 (Homo sapiens, UniProt Q9NWZ3)
DC50: 1 to 10 µM
//
Compound: O=C(O)Cn1cc(NC(=O)[C@H]2CCCN(c3cncc(CCCCCCNC[C@H]4CC[C@H](n5cc(NC(=O)c6cnn7ccc(N8C[C@H]9C[C@@H]8CO9)nc67)c(C(F)F)n5)CC4)c3)C2)ccc1=O
Test system: IRAK4 (Homo sapiens, UniProt Q9NWZ3)
DC50: > 10 µM
//
Compound: CCOC(=O)Cn1cc(NC(=O)[C@H]2CCCN(c3cncc(NCCOCCOCCOCCOCCNC[C@H]4CC[C@H](n5cc6cc(NC(=O)c7cccc(C(F)(F)F)n7)c(OC)cc6n5)CC4)c3)C2)ccc1=O
Test system: IRAK4 (Homo sapiens, UniProt Q9NWZ3)
DC50: > 10 µM
//
Compound: CC(C)(O)c1cc2nn([C@H]3CC[C@H](CNCCCCCCc4cccc5c(-c6cccc(C(=O)Nc7ccc(=O)n(CC(=O)O)c7)c6)cncc45)CC3)cc2cc1NC(=O)c1cccc(C(F)(F)F)n1
Test system: IRAK4 (Homo sapiens, UniProt Q9NWZ3)
DC50: > 10 µM
//
Compound: COC(=O)Cn1cc(NC(=O)c2cccc(-c3cncc(CCCCCCCCCNC[C@H]4CC[C@H](n5cc6cc(NC(=O)c7cccc(C(F)(F)F)n7)c(C(C)(C)O)cc6n5)CC4)c3)c2)ccc1=O
Test system: IRAK4 (Homo sapiens, UniProt Q9NWZ3)
DC50: 0.1 to 1 µM
//
Compound: COc1cc2nn([C@H]3CC[C@H](CN4CCC(c5cncc(N6CCC[C@H](C(=O)Nc7ccc(=O)n(CC(=O)O)c7)C6)c5)CC4)CC3)cc2cc1NC(=O)c1cccc(C(F)(F)F)n1
Test system: IRAK4 (Homo sapiens, UniProt Q9NWZ3)
DC50: > 10 µM
//
Compound: O=C(O)Cn1cc(NC(=O)c2cccc(-c3cncc(CCCCCCNC[C@H]4CC[C@H](n5cc(NC(=O)c6cnn7ccc(N8C[C@H]9C[C@@H]8CO9)nc67)c(C(F)F)n5)CC4)c3)c2)ccc1=O
Test system: IRAK4 (Homo sapiens, UniProt Q9NWZ3)
DC50: > 10 µM
//
Compound: CCOC(=O)Cn1cc(NC(=O)[C@H]2CCCN(c3cncc(OCCNC[C@H]4CC[C@H](n5cc6cc(NC(=O)c7cccc(C(F)(F)F)n7)c(OC)cc6n5)CC4)c3)C2)ccc1=O
Test system: IRAK4 (Homo sapiens, UniProt Q9NWZ3)
DC50: > 10 µM

# query: DC50 | item COc1cc2nn([C@H]3CC[C@H](CN(C)CC4CCN(c5cncc(N6CCCC(C(=O)Nc7ccc(=O)n(CC(=O)O)c7)C6)c5)CC4)CC3)cc2cc1NC(=O)c1cccc(C(F)(F)F)n1 (stereo partly shown) | system: IRAK4 (Homo sapiens, UniProt Q9NWZ3)
> 10 µM

# query: DC50 | item CCOC(=O)Cn1cc(NC(=O)c2ccc(-c3ccc(CCCCCCCCCNC[C@H]4CC[C@H](n5cc(NC(=O)c6cnn7ccc(N8C[C@H]9C[C@@H]8CO9)nc67)c(C(F)F)n5)CC4)cc3)cc2OC)ccc1=O | system: IRAK4 (Homo sapiens, UniProt Q9NWZ3)
> 10 µM
